B1: PhoQ; a variant is named by its letters at X, in order, P23837 (parent)
chain: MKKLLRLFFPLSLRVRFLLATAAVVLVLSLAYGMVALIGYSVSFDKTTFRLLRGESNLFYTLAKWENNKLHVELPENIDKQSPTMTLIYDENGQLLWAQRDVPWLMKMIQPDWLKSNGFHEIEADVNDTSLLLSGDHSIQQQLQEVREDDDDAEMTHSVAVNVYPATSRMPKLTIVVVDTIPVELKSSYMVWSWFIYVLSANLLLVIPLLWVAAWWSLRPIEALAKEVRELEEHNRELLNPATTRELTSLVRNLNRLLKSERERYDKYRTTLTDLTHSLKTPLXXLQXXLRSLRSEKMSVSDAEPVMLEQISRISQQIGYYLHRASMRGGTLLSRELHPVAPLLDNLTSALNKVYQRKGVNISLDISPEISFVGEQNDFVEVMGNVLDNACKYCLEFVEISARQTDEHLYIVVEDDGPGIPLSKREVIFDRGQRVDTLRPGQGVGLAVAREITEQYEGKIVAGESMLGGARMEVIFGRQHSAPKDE

variants of: B1; experiment: enrichment ratio after two sorts for PhoP signalling (ratio (wild type AVST 3.29)); higher = more functional; details: with PhoP (E. coli)
The full ranking holds about 140,000 sequences; the median of “enrichment ratio after two sorts for PhoP signalling” is about 0, and the highest 2% start at about 11. What follows is part of a selection rich in the highest values, with near analogues and random picks from the rest.
Recorded enrichment ratio values for a group of variants are listed next.

GAMM | 14.4

Ask: Fill in the blank: the reported enrichment ratio of IQMM is ____.
Reply: ≤ 0.25

Ask: // lookup enrichment ratio for VYYN
Reply: ≤ 0.25

Ask: I would be grateful if you could share the reported enrichment ratio for NRSD .
Reply: ≤ 0.25

Ask: Data request, read-out enrichment ratio, for VLMM
Reply: ≤ 0.25

Ask: I would be grateful if you could share the reported enrichment ratio for VAMM .
Reply: 12.8

Ask: Looking for the measured enrichment ratio of HIMM , can you help?
Reply: ≤ 0.25

Ask: Which enrichment ratio is listed for PPKF ?
Reply: ≤ 0.25

Ask: Could you share which enrichment ratio value was measured for IGWM ?
Reply: ≤ 0.25

Ask: Entry VHMM has what enrichment ratio?
Reply: ≤ 0.25

Ask: Can you share its enrichment ratio? I mean this variant: NTNY
Reply: ≤ 0.25

Attribution: a collection of fitness landscapes (doi:10.1126/science.1257360)
